Field: Primary assay EC50 (cAMP), n1. Provide a value for each of the binders that follow.
- MEASURED_TARGET: T1, glucose-dependent insulinotropic peptide (gastric inhibitory polypeptide) receptor (GIPR), primary cAMP assay (human, UniProt P48546 22-466)
- T1 sequence (looked up): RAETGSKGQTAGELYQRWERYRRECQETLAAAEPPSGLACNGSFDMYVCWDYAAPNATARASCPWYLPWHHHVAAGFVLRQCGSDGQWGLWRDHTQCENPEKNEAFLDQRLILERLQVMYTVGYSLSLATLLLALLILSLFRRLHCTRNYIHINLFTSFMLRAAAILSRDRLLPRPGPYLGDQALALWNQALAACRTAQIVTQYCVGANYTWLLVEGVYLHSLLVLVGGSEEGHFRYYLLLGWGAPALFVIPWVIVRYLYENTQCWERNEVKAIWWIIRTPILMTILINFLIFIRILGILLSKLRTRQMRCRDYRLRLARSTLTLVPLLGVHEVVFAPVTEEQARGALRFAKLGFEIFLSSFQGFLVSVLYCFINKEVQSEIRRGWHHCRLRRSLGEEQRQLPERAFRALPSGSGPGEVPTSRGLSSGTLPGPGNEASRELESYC
- TEST_NAME: cell-based or functional assay
Starred links: 1 amine or outer side, 2 acyl side, 3 side chain; linkers in the order of their positions; H or OH if unused. Non-standard residues stand in square brackets, D forms with d. Groups on a side chain read outwards from the residue. Primed or numbered codes have the meaning given here. No end group written: not given here. *: point of attachment. γGlu = O=C(O)[C@H](CCC(=O)[*:2])N[*:1]; Palmitoyl = CCCCCCCCCCCCCCCC(=O)*; αMeF = C[C@](N)(Cc1ccccc1)C(=O)O; αMeK = C[C@](N)(CCCCN)C(=O)O; Lauroyl = CCCCCCCCCCCC(=O)*; αMeS = C[C@](N)(CO)C(=O)O; PEG2′ = not defined here; Aib = CC(C)(N)C(=O)O
Response body: numeric value in nM, unit text excluded.

For record H[Aib]EGS[αMeF]TSDV[αMeS]SK([PEG2′-PEG2′-γGlu-Palmitoyl])LEGEAA[αMeK]EFIAK([PEG2′-PEG2′-γGlu-Palmitoyl])VVEGG-NH2 [SEQ ID NO: 266] the listed Primary assay EC50 (cAMP), n1 is 22.2

// H[Aib]EGS[αMeF]TSDV[αMeS]SYK([PEG2′-PEG2′-γGlu-Palmitoyl])EGEAA[αMeK]EFIAWK([PEG2′-PEG2′-γGlu-Palmitoyl])VEGG-NH2 [SEQ ID NO: 273] : Primary assay EC50 (cAMP), n1 value = 21.5

So, H[Aib]EGS[αMeF]TSDV[αMeS]SYK([PEG2′-PEG2′-γGlu-Lauroyl])EGEAA[αMeK]EFIAK([PEG2′-PEG2′-γGlu-Lauroyl])VVEGG-NH2 [SEQ ID NO: 269] ? Its Primary assay EC50 (cAMP), n1 was 22.8

Value of measured Primary assay EC50 (cAMP), n1 for the entry H[Aib]EGS[αMeF]TSDV[αMeS]SYK([PEG2′-PEG2′-γGlu-Palmitoyl])EGEAA[αMeK]EFIK([PEG2′-PEG2′-γGlu-Palmitoyl])WVVEGG-NH2 [SEQ ID NO: 271] : 21.4
